This listing pairs molecules with measured %B/B0.
- Tested on: Antibody to Immunogen VII
- Type: binding, sheep
- Study conditions: Cross-reactants at 100 ng/ml; Antibody to Immunogen VII
- Procedure: An aqueous solution of each immunogen was formulated with Freund's Complete Adjuvant (FCA) to form an emulsion consisting of 2mg/ml* immunogen in 50% (v/v) FCA. […] The wells of an enhanced binding 96 well polystyrene microtiter plate were coated with IgG fraction of antiserum raised to Immunogen I or II, diluted in 10mM Tris, pH8.5 (125µl/well). The appropriate antibody coating dilution was determined using standard ELISA checkerboard techniques. […]
Respond with the bare value in %.

See these solved cases before continuing.
Query: Tell us which %B/B0 value is on record for CN1CCCCC1Cn1cc(C(=O)c2cc([N+](=O)[O-])ccc2I)c2ccccc21 (stereo not shown)
Result: 94.96

Query: Tell us which %B/B0 value is on record for CCCCCn1cc(C(=O)c2cccc3ccc(CC)cc23)c2ccccc21 [JWH-210 7-ethylnaphthyl isomer or JWH-234, JWH-210 7-ethylnaphthyl isomer]
Result: 100.55

Query: Could you please provide reported %B/B0 for CCCCn1cc(C(=O)c2ccc(OC)cc2)c2ccccc21 ? Thanks!
Result: 100.20

Query: Write down %B/B0 measured for item CS(=O)(=O)O.Cc1c(C(=O)c2cccc3ccccc23)c2cccc3c2n1[C@H](CN1CCOCC1)CO3 [(+)WIN 55212-2 (mesylate), (+)WIN 55212-2]
Result: 24.08

Query: Supply measured %B/B0 of CCCCCn1cc(C(=O)c2cccc3cc(C)ccc23)c2ccccc21 [JWH 122 6-methylnaphthyl isomer] in your reply.
Result: 86.66

---
Query: Please give measured %B/B0 of the following entry: CCc1ccc(C(=O)c2cn(CCCCCC(=O)O)c3ccccc23)c2ccccc12 [JWH-210 N-(5-carboxypentyl) metabolite]
Result: 96.07

Query: # return recorded %B/B0 for input COc1ccc(C(=O)c2cn(CCCCCC(=O)O)c3ccccc23)cc1 [RCS-4 N-(5-carboxypentyl) metabolite]
Result: 94.00
